test system: SNB-19 CNS; experiment: NCI-60 one-dose screen, 48 h; settings: 10 µM unless noted
This is part of a sample that, as a whole, favours compounds with a hit. Of some 83,000 tested, about 20% had one in any assay. Activity calls are given as the source filed them. The calls were made as follows: active = growth percent below 10; inactive = the rest.
The reply should name one outcome from active, inactive

// below: answered compounds
>  <compound>
O=C(CC(=O)c1ccccc1F)Nc1ccc([N+](=O)[O-])cc1

>  <assigned_category>
inactive

$$$$
>  <compound>
O=C(c1ccccc1)C(CCc1ccccn1)CCc1ccccn1

>  <assigned_category>
inactive

$$$$
>  <compound>
C=C(C)[C@@H]1CC[C@]2(C(=O)NS(=O)(=O)c3ccccc3)CC[C@]3(C)[C@H](CC[C@@H]4[C@@]5(C)CC[C@H](OC(=O)NS(=O)(=O)c6ccccc6)C(C)(C)[C@@H]5CC[C@]43C)[C@@H]12

>  <assigned_category>
inactive

$$$$
>  <compound>
COc1ccc(NC(=O)c2sc3c(=O)[nH]c(C(F)(F)F)nc3c2C)cc1

>  <assigned_category>
inactive

$$$$
>  <compound>
CC(C)(C)[Si](C)(C)OC1[C@@H](O[Si](C)(C)C(C)(C)C)[C@@H](CNC(=O)NC(=O)NC(=O)CCl)O[C@H]1n1cnc2c(NC(=O)Nc3ccccc3)ncnc21 (stereo partly drawn)

>  <assigned_category>
inactive

$$$$
>  <compound>
COc1cccc(C2C(C#N)=C(N)Oc3cc4c(cc32)OCO4)c1 (stereo not drawn)

>  <assigned_category>
inactive

$$$$
>  <compound>
C[Si](C)(C)C(c1ccccc1)c1ccccc1

>  <assigned_category>
inactive

$$$$

Now take the following compound into account.
For this compound, state the assay outcome: `COc1ccc(N=C2CSc3nnc(-c4cc(F)c(Cl)cc4Cl)n3N2)cc1`
active

* * *

tested on: U251 CNS; experiment: NCI-60 one-dose screen, 48 h (100 = growth as untreated, 0 = no growth, -100 = all killed); conditions: 10 µM unless noted
About 83,000 compounds went through this panel and 20% of them were active in at least one assay; those are over-represented in the sample as a whole. Activity calls are given as the source filed them. How the source made its calls: active means growth percent below 10; inactive means the rest.
quantity_kind: growth

>  <compound>
Nc1c(C(=O)Nc2cccc(Cl)c2)sc2nc3c(cc12)C(=O)CCC3

>  <growth>
46.4% (inactive)

$$$$

Value lookup for growth; key = `CCOC(=O)C#Cc1c(C(=O)OCC)nnn1[C@@H]1O[C@H](COC(C)=O)[C@@H](OC(C)=O)[C@H]1OC(C)=O`
100% (inactive)

growth lookup needed for `COc1cccc(/C=N\Nc2ccc([N+](=O)[O-])cn2)c1O` , thanks.
21.7% (inactive)

Look at this compound and give its reported growth. `O=C(Nc1ccccc1)c1cc2ccccc2s1`
89.4% (inactive)

I have this compound here, `COc1cccc(NC(=O)OC(C)C)c1` , and I need its recorded growth.
94.9% (inactive)

# growth lookup, item Oc1c(C(Nc2cccc3ccccc23)c2ccccc2)ccc2cccnc12 (stereo unspecified)
20.6% (inactive)

* * *

system: CAKI-1 renal; test: NCI-60 one-dose screen, 48 h (100 = growth as untreated, 0 = no growth, -100 = all killed); conditions: 10 µM unless noted
About 83,000 compounds went through this panel and 20% of them were active in at least one assay; those are over-represented in the sample as a whole. The source made the active and inactive calls. How the source made its calls: active means growth percent below 10; inactive means the rest.
Form field: growth (one value per entry).

>  <molecule>
CC(C)c1nc2ccccc2n1CC(=O)N/N=C/c1cccc(O)c1

>  <study_system>
CAKI-1 renal

>  <growth>
101% (inactive)

$$$$
>  <molecule>
COc1ccc(-c2nc(SCCC(C)C)nc(Nc3ccc(C(=O)O)cc3)c2C#N)cc1

>  <study_system>
CAKI-1 renal

>  <growth>
92.1% (inactive)

$$$$

Record request: growth value, item `Cc1ccncc1NC=O`
95.8% (inactive)

Please report the recorded growth for CC(C)[C@@]12C[C@@H](OC(=O)C3CO3)[C@@](C)(O1)[C@@H]1CC[C@@H](C)[C@H]1[C@@H]2OC(=O)/C=C/c1ccccc1 (stereo not given in full) .
51.7% (inactive)

Form field: reported growth of `Cc1nn(-c2cccc(Cl)c2)c(C)c1N=Nc1ccc(Br)cc1`
86.7% (inactive)

// query growth value for entry `COc1ccc(/C=C/C(=O)CCC(=O)O)cc1OC`
95.5% (inactive)

Name the reported growth value associated with the molecule `Cc1ccc([C@H]2c3[nH]c4ccccc4c3C[C@H]3C(=O)N(CCCCCCC(=O)NO)CC(=O)N23)cc1`
51.2% (inactive)

growth for `COCc1nc(NS(=O)(=O)c2ccc(N)cc2)nc(C)c1Br` ?
102% (inactive)

Entry under review: `O=C(Nc1ccc(-n2ccc3c(NC(=O)c4ccccc4)nccc32)cc1)c1ccc(N2CCOCC2)c(C(F)(F)F)c1` . Reported growth?
25.6% (inactive)

Any idea what growth was measured for `COc1ncnc2[nH]cc(CN3CCN(c4ccc(F)cc4)CC3)c12` ?
98.8% (inactive)
